Hello, the source for this data is patent US11028051B2, in case you need it.

target_under_test: BRD2-BD1 (Homo sapiens (Human))
Sequence (P25440 74-180): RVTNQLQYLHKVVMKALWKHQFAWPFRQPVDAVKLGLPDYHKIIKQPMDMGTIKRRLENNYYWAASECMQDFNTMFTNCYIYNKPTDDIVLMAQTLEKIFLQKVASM
protocol_details: competitive TR-FRET assay, BET-BD with acetylated peptide ligand
settings: Table 2, inhibitor potency by TR-FRET
Items are presented alongside their recorded IC50.
Give your result in µM as a bare value.

Worked set:
QUERY: Can you look up IC50 on BRD2-BD1 (Homo sapiens (Human)) for CC(=O)N1c2ccc(-c3cc[nH]c3)cc2[C@H](NC(=O)OC(C)C)C[C@@H]1C [compound 55] ?
RESULT: 1.71

QUERY: Can you look up IC50 on BRD2-BD1 (Homo sapiens (Human)) for CC(=O)N1c2ccc(-c3ccsc3)cc2[C@H](NC(=O)OC(C)C)C[C@@H]1C [compound 53] ?
RESULT: 7.21

From here, focus on the item given below.
QUERY: Can you look up IC50 on BRD2-BD1 (Homo sapiens (Human)) for CC(=O)N1c2ccc(-c3cccs3)cc2[C@H](NC(=O)OC(C)C)C[C@@H]1C [compound 52] ?
RESULT: 1.68

====

Items are presented alongside their recorded EC50.
target_under_test: UniProtKB Q58F21
protocol_details: competitive TR-FRET assay, BET-BD with acetylated peptide ligand
Type: binding
settings: BRDT; Table 11 additional modifications; read-out: BRDT EC50

QUERY: Would you mind telling me what EC50 value was observed for CC(=O)N1c2ccc(-c3cccc(N(CCC(C)C)CCC(C)C)c3)cc2[C@H](Nc2ccccc2OC(F)(F)F)C[C@@H]1C ?
RESULT: > 90 µM

QUERY: Would you mind telling me what EC50 value was observed for CCCCN(CCCC)c1cccc(-c2ccc3c(c2)[C@H](Nc2ccccc2OC(F)(F)F)C[C@H](C)N3C(C)=O)c1 ?
RESULT: > 78 µM

---
QUERY: Would you mind telling me what EC50 value was observed for CC(=O)Nc1cccc(-c2ccc3c(c2)[C@H](Nc2cccc4ccccc24)C[C@H](C)N3C(C)=O)c1 ?
RESULT: > 23 µM

====

target_under_test: BRD2-BD2 (Homo sapiens (Human))
Sequence (P25440 344-453): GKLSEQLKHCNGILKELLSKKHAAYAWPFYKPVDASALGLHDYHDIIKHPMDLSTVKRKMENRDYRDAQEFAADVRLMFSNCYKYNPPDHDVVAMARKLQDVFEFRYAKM
protocol_details: competitive TR-FRET assay, BET-BD with acetylated peptide ligand
Type: binding
settings: ratio of BRD2-BD1 EC50 to BRD2-BD2 EC50 (selectivity)
experimental_readout: 2.1/2.2

Worked set:
QUERY: Can you look up 2.1/2.2 on BRD2-BD2 (Homo sapiens (Human)) for CCCOc1cccc(-c2ccc3c(c2)[C@H](Nc2ccccc2OC(F)(F)F)C[C@H](C)N3C(C)=O)c1 [compound 167] ?
RESULT: 16

QUERY: Can you look up 2.1/2.2 on BRD2-BD2 (Homo sapiens (Human)) for CC(=O)Nc1cccc(-c2ccc3c(c2)[C@H](Nc2cccc(Cl)c2)C[C@H](C)N3C(C)=O)c1 [compound 198] ?
RESULT: 19

QUERY: Can you look up 2.1/2.2 on BRD2-BD2 (Homo sapiens (Human)) for CC(=O)N1c2ccc(-c3cccc(CN)c3)cc2[C@H](NC(=O)OC(C)C)C[C@@H]1C [compound 88] ?
RESULT: 11

QUERY: Can you look up 2.1/2.2 on BRD2-BD2 (Homo sapiens (Human)) for CC(=O)N1c2ccc(-c3cccc(NC(=O)C4CCCCC4)c3)cc2[C@H](NC(=O)OC(C)C)C[C@@H]1C [compound 99] ?
RESULT: 12

---
QUERY: Can you look up 2.1/2.2 on BRD2-BD2 (Homo sapiens (Human)) for CC(=O)N1c2ccc(-c3cccc(NC(=O)C(C)C)c3)cc2[C@H](Nc2ccc(C#N)cc2)C[C@@H]1C [compound 184] ?
RESULT: 14

QUERY: Can you look up 2.1/2.2 on BRD2-BD2 (Homo sapiens (Human)) for COC(=O)c1cccc(N[C@@H]2C[C@H](C)N(C(C)=O)c3ccc(-c4cccc(NC(C)=O)c4)cc32)c1 [compound 7] ?
RESULT: >1000

====

target_under_test: BRD2-BD1 (Homo sapiens (Human))
protocol_details: competitive TR-FRET assay, BET-BD with acetylated peptide ligand
Format: binding
settings: BRD2-BD1; Table 11 additional modifications; read-out: 2.1 EC50
Procedure: Inhibitor potency was determined using a competitive TR-FRET assay as detailed herein, measuring interaction of the respective BET-BD with an acetylated peptide ligand (Table 2).
Items are presented alongside their recorded pEC50.
Formally, pEC50 is defined as -log10 of the concentration c, with c in mol/L.

Worked set:
QUERY: Would you mind telling me what pEC50 value was observed for CC(=O)N1c2ccc(-c3cccc(NC(=O)OC(C)(C)C)c3)cc2[C@H](NC(=O)OC(C)C)C[C@@H]1C ?
RESULT: 5.60

QUERY: Would you mind telling me what pEC50 value was observed for CC(=O)N1c2ccc(-c3cccc(NCC(C)C)c3)cc2[C@H](NC(=O)OC(C)C)C[C@@H]1C ?
RESULT: 5.59

QUERY: Would you mind telling me what pEC50 value was observed for CCCC(=O)Nc1cccc(-c2ccc3c(c2)[C@H](NC(=O)OC(C)C)C[C@H](C)N3C(C)=O)c1 ?
RESULT: 5.96

---
QUERY: Would you mind telling me what pEC50 value was observed for CC(=O)N1c2ccc(-c3cccc([N+](=O)[O-])c3)cc2[C@H](NC(=O)OC(C)C)C[C@@H]1C ?
RESULT: 5.11

QUERY: Would you mind telling me what pEC50 value was observed for C#CCCNC(=O)c1ccc(N[C@@H]2C[C@H](C)N(C(C)=O)c3ccc(-c4cccc(NC(C)=O)c4)cc32)cc1 ?
RESULT: 6.10

====

Items are presented alongside their recorded log10 EC50.
target_under_test: BRD2-BD2 (Homo sapiens (Human))
protocol_details: competitive TR-FRET assay, BET-BD with acetylated peptide ligand
Assay type: binding
settings: BRD2-BD2; Table 11 additional modifications; read-out: 2.2 EC50
Quick note: numbers are log10 of EC50, with nM as the unit.

QUERY: Would you mind telling me what log10 EC50 value was observed for CC(=O)N1c2ccc(-c3cccc(N(CC4CC4)CC4CC4)c3)cc2[C@H](Nc2ccccc2OC(F)(F)F)C[C@@H]1C ?
RESULT: 3.92

QUERY: Would you mind telling me what log10 EC50 value was observed for CC(=O)N1c2ccc(-c3cccc(NC(=O)CC(C)C)c3)cc2[C@H](NC(=O)OC(C)C)C[C@@H]1C ?
RESULT: 2.46

QUERY: Would you mind telling me what log10 EC50 value was observed for CC(=O)Nc1cccc(-c2ccc3c(c2)[C@H](Nc2cc(F)c(C#N)c(F)c2)C[C@H](C)N3C(C)=O)c1 ?
RESULT: 2.08

QUERY: Would you mind telling me what log10 EC50 value was observed for CC(=O)N1c2ccc(-c3cccc(NCc4ccc(C)cc4)c3)cc2[C@H](NC(=O)OC(C)C)C[C@@H]1C ?
RESULT: 3.45

From here, focus on the item given below.
QUERY: Would you mind telling me what log10 EC50 value was observed for CC(=O)Nc1cccc(-c2ccc3c(c2)[C@H](Nc2ccc(C(=O)O)cc2)C[C@H](C)N3C(C)=O)c1 ?
RESULT: 2.11

====

target_under_test: BRD2-BD2 (Homo sapiens (Human))
protocol_details: competitive TR-FRET assay, BET-BD with acetylated peptide ligand
Format: binding
settings: ratio of BRD2-BD1 EC50 to BRD2-BD2 EC50 (selectivity)
Kind request: treat 20 as inclusive, so 2.1/2.2 at 20 or higher is met, anything lower is not met.

Here are 2 molecules together with their reported answers.
QUERY: Can CC(=O)N1c2ccc(-c3ccn(C)n3)cc2[C@H](Nc2ccc(C#N)cc2)C[C@@H]1C [compound 182] be said to have 2.1/2.2 at or above 20?
RESULT: met

QUERY: Can CC(=O)N1c2ccc(-c3cccc(NC(=O)C(C)(C)C)c3)cc2[C@H](Nc2ccccc2Cl)C[C@@H]1C [compound 205] be said to have 2.1/2.2 at or above 20?
RESULT: met

Could you now look at the following molecule, please?
QUERY: Can CC(=O)Nc1cccc(-c2ccc3c(c2)[C@H](Nc2cccc(CN)c2)C[C@H](C)N3C(C)=O)c1 [compound 163] be said to have 2.1/2.2 at or above 20?
RESULT: not met

====

Items are presented alongside their recorded pEC50.
target_under_test: BRDT (Homo sapiens, UniProt Q58F21)
protocol_details: competitive TR-FRET assay, BET-BD with acetylated peptide ligand
Format: binding
settings: BRDT; Table 11 additional modifications; read-out: BRDT EC50
pEC50: −log10 of the molar value.

Worked set:
QUERY: Can you look up pEC50 on BRDT (Homo sapiens, UniProt Q58F21) for CC(=O)Nc1cccc(-c2ccc3c(c2)[C@H](Nc2cccc4cccnc24)C[C@H](C)N3C(C)=O)c1 ?
RESULT: < 5.31

QUERY: Can you look up pEC50 on BRDT (Homo sapiens, UniProt Q58F21) for CC(=O)Nc1cccc(-c2ccc3c(c2)[C@H](Nc2ccc(-c4nnnn4C)cc2)C[C@H](C)N3C(C)=O)c1 ?
RESULT: < 4.28

QUERY: Can you look up pEC50 on BRDT (Homo sapiens, UniProt Q58F21) for CC(=O)N1c2ccc(-c3cc[nH]n3)cc2[C@H](Nc2ccccc2OC(F)(F)F)C[C@@H]1C ?
RESULT: < 4.28

QUERY: Can you look up pEC50 on BRDT (Homo sapiens, UniProt Q58F21) for CC(=O)N1c2ccc(-c3cccc(N(CC4CC4)CC4CC4)c3)cc2[C@H](Nc2ccccc2OC(F)(F)F)C[C@@H]1C ?
RESULT: < 4.10

QUERY: Can you look up pEC50 on BRDT (Homo sapiens, UniProt Q58F21) for CC(=O)N1c2ccc(-c3cccc(NCCC(F)(F)F)c3)cc2[C@H](Nc2ccccc2OC(F)(F)F)C[C@@H]1C ?
RESULT: < 4.05

---
QUERY: Can you look up pEC50 on BRDT (Homo sapiens, UniProt Q58F21) for CCCN(CCC)c1cccc(-c2ccc3c(c2)[C@H](Nc2ccccc2OC(F)(F)F)C[C@H](C)N3C(C)=O)c1 ?
RESULT: < 4.08

QUERY: Can you look up pEC50 on BRDT (Homo sapiens, UniProt Q58F21) for CCCOc1cccc(-c2ccc3c(c2)[C@H](Nc2ccccc2OC(F)(F)F)C[C@H](C)N3C(C)=O)c1 ?
RESULT: < 4.15
